Listed here are compounds together with their documented inhibition.
- experimental_target: Glycogen synthase kinase-3 beta (Homo sapiens);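 further: values are mean percent inhibition of GSK3B activity, from the GSK Published Kinase Inhibitor Set (PKIS) screening dataset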
- condition: at 0.1 µM
measured_quantity: inhibition (%)

>>> recorded_measurement("Nc1nc(-c2ccccn2)c(-c2ccc3ncccc3n2)s1")
3.76
>>> recorded_measurement("CC1=C(C(=O)Nc2ccc3[nH]ncc3c2)C(c2ccc3ccccc3c2)CC(=O)N1 (centres undefined)")
2.72
>>> recorded_measurement("Cc1nn(C)c2cc(N(C)c3ccnc(Nc4cccc(S(N)(=O)=O)c4)n3)ccc12")
0.37
>>> recorded_measurement("COc1cc2ncn(-c3cc(OCc4ccccc4Cl)c(C(N)=O)s3)c2cc1OC")
1.21
>>> recorded_measurement("CCN1CCC(CC(=O)Nc2n[nH]c3nc(-c4cccs4)c(Br)cc23)CC1")
26.6
>>> recorded_measurement("NCc1ccc(-c2nc(-c3ccc(Cl)c(O)c3)c(-c3ccncc3)[nH]2)cc1")
16.9
>>> recorded_measurement("CCn1c(-c2nonc2N)nc2c(C#CC(C)(C)O)nc(CN3CCCC3)cc21")
4.97
>>> recorded_measurement("COc1ccc(-c2coc3ncnc(N)c23)cc1")
0.71
>>> recorded_measurement("CS(=O)(=O)CCNCc1ccc(-c2ccc3ncnc(Nc4ccc(OCc5ccccc5)c(Cl)c4)c3c2)o1")
2.15
>>> recorded_measurement("[O-][S+]1CCN(Cc2ccc(-c3ccc4ncnc(Nc5ccc(OCc6ccccc6)c(F)c5)c4c3)o2)CC1")
-0.3
>>> recorded_measurement("Fc1cccc(COc2ccc(Nc3ncnc4sc(-c5cccs5)cc34)cc2Cl)c1")
1.97
>>> recorded_measurement("CCn1c(-c2nonc2N)nc2c(C#CC(C)(C)O)nc(OC[C@@H](N)c3ccccc3)cc21")
32.1
>>> recorded_measurement("CCn1c(-c2nonc2N)nc2cncc(C(=O)N3CCNCC3)c21")
1.93
>>> recorded_measurement("CS(=O)(=O)CCN(CC#N)Cc1ccc(-c2ccc3ncnc(Nc4ccc(OCc5cccc(F)c5)c(Cl)c4)c3c2)o1")
-2.26
>>> recorded_measurement("CC(=O)Nc1cccc(C#Cc2cncnc2Nc2ccc(OCc3cccc(F)c3)c(Cl)c2)n1")
1.37
>>> recorded_measurement("COc1cc(C)c(NC(=O)CN(C)C)cc1Nc1nc(Nc2cccc(F)c2C(N)=O)c2cc[nH]c2n1")
-1.22
>>> recorded_measurement("CC(C)=Cc1cccc2c1/C(=N/Nc1ccc(S(N)(=O)=O)cc1)C(=O)N2")
7.42
>>> recorded_measurement("NC(=O)c1cccc(Nc2nccc(Nc3cccc4[nH]ncc34)n2)c1")
8.67
>>> recorded_measurement("Nc1ncnc2occ(-c3ccc(NC(=O)Nc4cccc(C(F)(F)F)c4)cc3)c12")
2.89

====

Listed here are compounds together with their documented inhibition.
- Test system: Epidermal growth factor receptor (Homo sapiens), P00533 [L861Q]
- Sequence (P00533 whole entry L861Q): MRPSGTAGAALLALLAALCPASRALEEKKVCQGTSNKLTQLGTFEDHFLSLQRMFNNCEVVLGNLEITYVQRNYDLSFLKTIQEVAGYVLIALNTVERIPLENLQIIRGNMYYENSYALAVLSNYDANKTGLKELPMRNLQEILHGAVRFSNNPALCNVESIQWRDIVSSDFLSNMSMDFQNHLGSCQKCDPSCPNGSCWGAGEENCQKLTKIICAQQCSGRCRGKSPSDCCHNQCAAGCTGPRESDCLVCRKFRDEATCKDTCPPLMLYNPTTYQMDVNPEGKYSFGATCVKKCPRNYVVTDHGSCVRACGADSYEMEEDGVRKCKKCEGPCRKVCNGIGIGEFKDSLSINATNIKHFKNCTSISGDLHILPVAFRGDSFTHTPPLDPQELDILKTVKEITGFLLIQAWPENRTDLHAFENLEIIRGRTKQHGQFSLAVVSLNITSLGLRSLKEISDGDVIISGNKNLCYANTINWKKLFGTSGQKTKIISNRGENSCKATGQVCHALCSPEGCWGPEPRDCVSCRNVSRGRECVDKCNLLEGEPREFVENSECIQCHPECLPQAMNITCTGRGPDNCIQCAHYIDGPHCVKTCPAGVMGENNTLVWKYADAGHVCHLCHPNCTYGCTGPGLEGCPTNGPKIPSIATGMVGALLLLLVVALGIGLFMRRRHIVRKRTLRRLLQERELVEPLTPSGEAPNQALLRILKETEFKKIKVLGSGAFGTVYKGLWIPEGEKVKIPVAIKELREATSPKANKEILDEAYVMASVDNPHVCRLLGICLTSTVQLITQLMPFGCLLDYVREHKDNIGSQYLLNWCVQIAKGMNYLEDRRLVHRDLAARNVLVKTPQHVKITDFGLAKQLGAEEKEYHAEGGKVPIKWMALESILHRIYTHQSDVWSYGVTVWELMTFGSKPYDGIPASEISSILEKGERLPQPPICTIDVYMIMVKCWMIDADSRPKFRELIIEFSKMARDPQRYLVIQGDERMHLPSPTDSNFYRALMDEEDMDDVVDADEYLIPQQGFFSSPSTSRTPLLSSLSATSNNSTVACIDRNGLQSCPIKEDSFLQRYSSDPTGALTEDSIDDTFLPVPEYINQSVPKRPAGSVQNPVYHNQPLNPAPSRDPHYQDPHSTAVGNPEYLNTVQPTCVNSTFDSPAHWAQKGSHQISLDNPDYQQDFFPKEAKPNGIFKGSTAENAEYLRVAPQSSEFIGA
- condition: at 0.1 µM
measured_quantity: inhibition

>>> recorded_measurement("NC(=O)c1cccc(Nc2nccc(Nc3cccc4[nH]ncc34)n2)c1")
"3.36%"
>>> recorded_measurement("O=C1Nc2ccc(C(=O)c3ccco3)cc2C1=Cc1cc(Cl)c(O)c(Cl)c1")
"3.88%"
>>> recorded_measurement("O=C(Nc1n[nH]c2nc(-c3ccco3)c(Br)cc12)C1CC1")
"0.96%"
>>> recorded_measurement("COc1cc2ncn(-c3cc(O[C@H](C)c4ccccc4Cl)c(C(N)=O)s3)c2cc1OC")
"2.61%"
>>> recorded_measurement("CC(C)=Cc1cccc2c1/C(=N/Nc1ccc(S(N)(=O)=O)cc1)C(=O)N2")
"1.19%"
>>> recorded_measurement("Nc1ncnc2occ(-c3ccc(NC(=O)Nc4cccc(C(F)(F)F)c4)cc3)c12")
"2.76%"
>>> recorded_measurement("CC1=C(C(=O)Nc2ccc3[nH]ncc3c2)C(c2ccc(Cl)c(Cl)c2)CC(=O)N1 (configuration not stated)")
"1.95%"
>>> recorded_measurement("Cc1ccc(C(=O)NC2CCCCC2)cc1-c1ccc(C(=O)NCC2CC2)cc1")
"1.18%"
>>> recorded_measurement("c1cnn2ncc(-c3ccnc(Nc4ccc5c(c4)OCCO5)n3)c2c1")
"3.71%"
>>> recorded_measurement("COc1cc2ncn(-c3cc(OCc4ccccc4C(F)(F)F)c(C(N)=O)s3)c2cc1OC")
"3.75%"
>>> recorded_measurement("CC1=C(C(=O)Nc2ccc3[nH]ncc3c2)C(c2ccc(F)cc2)NC(=O)N1 (configuration not stated)")
"2.31%"
>>> recorded_measurement("CCn1c(-c2nonc2N)nc2cnc(Oc3cccc(NC(=O)c4ccc(OCCN5CCOCC5)cc4)c3)cc21")
"2.62%"

====

Listed here are compounds together with their documented inhibition.
- experimental_target: Aurora kinase C (Homo sapiens) (UniProt Q9UQB9);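 further: values are the mean inhibition of Aurora-C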
- Sequence (Q9UQB9 whole entry): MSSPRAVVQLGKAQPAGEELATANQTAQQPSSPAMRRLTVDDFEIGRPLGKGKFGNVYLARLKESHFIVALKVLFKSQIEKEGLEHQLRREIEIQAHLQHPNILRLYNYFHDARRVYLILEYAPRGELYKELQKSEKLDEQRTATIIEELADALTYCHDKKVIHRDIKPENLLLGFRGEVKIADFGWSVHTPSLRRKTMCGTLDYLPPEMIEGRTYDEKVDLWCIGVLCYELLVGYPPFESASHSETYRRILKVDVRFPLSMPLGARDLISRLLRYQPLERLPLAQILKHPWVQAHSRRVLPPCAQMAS
- condition: at 0.1 µM
measured_quantity: inhibition (%)

>>> recorded_measurement("Cc1ccc(NC(=O)c2ccnc(N3CCCC3)c2)cc1-c1ccc(C(=O)NCC2CC2)cc1")
-0.41
>>> recorded_measurement("CCn1c(-c2nonc2N)nc2cnc(Oc3cccc(NC(=O)c4ccc(OCCN5CCOCC5)cc4)c3)cc21")
1.52
>>> recorded_measurement("NCc1ccc(-c2nc(-c3ccc(Cl)c(O)c3)c(-c3ccncc3)[nH]2)cc1")
1.89
>>> recorded_measurement("CCn1c(-c2nonc2N)nc2cncc(C(=O)N3CC[C@H](N)C3)c21")
1.58
>>> recorded_measurement("CCc1cccc(NC(=O)Nc2ccc(Oc3ccc4nc(NC(=O)OC)[nH]c4c3)cc2)c1")
10.3
>>> recorded_measurement("COc1ccc(-c2ccncc2)cc1C(N)=O")
1.6
>>> recorded_measurement("NS(=O)(=O)c1ccc(N/N=C2\\C(=O)Nc3ccc(C(=O)NCCc4c[nH]cn4)cc32)cc1")
3.9
>>> recorded_measurement("COc1cc2ncn(-c3cc(OCc4ccccc4C(F)(F)F)c(C(N)=O)s3)c2cc1OC")
4.2
>>> recorded_measurement("[O-][S+]1CCN(Cc2ccc(-c3ccc4ncnc(Nc5ccc(OCc6ccccc6)c(F)c5)c4c3)o2)CC1")
0.94
>>> recorded_measurement("CS(=O)(=O)CCN(CC#N)Cc1ccc(-c2ccc3ncnc(Nc4ccc(OCc5cccc(F)c5)c(Cl)c4)c3c2)o1")
-4.78
>>> recorded_measurement("Cc1nn(C)c2cc(N(C)c3ccnc(Nc4cccc(S(N)(=O)=O)c4)n3)ccc12")
13.3
>>> recorded_measurement("Cc1ccc(C(=O)NC2CCCCC2)cc1-c1ccc(C(=O)NCC2CC2)cc1")
2.71
>>> recorded_measurement("c1cnn2ncc(-c3ccnc(Nc4ccc5c(c4)OCCO5)n3)c2c1")
18.8

====

Listed here are compounds together with their documented inhibition.
- experimental_target: 5'-AMP-activated protein kinase catalytic subunit alpha-2 (Homo sapiens);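 further: mean inhibition measured on the AMPK complex of alpha2, beta1 and gamma1 subunits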
- condition: at 0.1 µM
- Description: GSK_PKIS: AMPKA2 (A2B1G1) mean inhibition at 0.1 uM [Nanosyn]
measured_quantity: inhibition (%)

>>> recorded_measurement("Cc1cccc(-c2n[nH]cc2-c2ccc3ncccc3n2)n1")
0.85
>>> recorded_measurement("CS(=O)(=O)Nc1ccc(N/C=C2\\C(=O)Nc3ccccc32)cc1")
-0.35
>>> recorded_measurement("COc1cc2ncn(-c3cc(OCc4ccccc4C(F)(F)F)c(C(N)=O)s3)c2cc1OC")
2.61
>>> recorded_measurement("CC1=C(C(=O)Nc2ccc3[nH]ncc3c2)C(c2ccc3ccccc3c2)CC(=O)N1 (centres undefined)")
2.46

====

- experimental_target: Inhibitor of nuclear factor kappa-B kinase subunit alpha (Homo sapiens);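 further: mean inhibition of IKKA, from the GSK PKIS data set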
- condition: at 1 µM
measured_quantity: inhibition (%)

>>> recorded_measurement("O=C1NC(=O)C(c2ccc(Cl)cc2)=C1Nc1ccc(Cl)c(C(=O)O)c1")
4.5
>>> recorded_measurement("NS(=O)(=O)c1ccc(N/N=C2\\C(=O)Nc3ccc(C(=O)NCCc4c[nH]cn4)cc32)cc1")
13
>>> recorded_measurement("CS(=O)(=O)CCNCc1ccc(-c2ccc3ncnc(Nc4ccc(OCc5cccc(F)c5)c(C(F)(F)F)c4)c3c2)o1")
5.45

====

- experimental_target: Serine/threonine-protein kinase Nek7 (Homo sapiens) (UniProt Q8TDX7);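 further: reported values are mean inhibition of NEK7 from the GSK PKIS kinase screening panel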
- Sequence (Q8TDX7 whole entry, looked up): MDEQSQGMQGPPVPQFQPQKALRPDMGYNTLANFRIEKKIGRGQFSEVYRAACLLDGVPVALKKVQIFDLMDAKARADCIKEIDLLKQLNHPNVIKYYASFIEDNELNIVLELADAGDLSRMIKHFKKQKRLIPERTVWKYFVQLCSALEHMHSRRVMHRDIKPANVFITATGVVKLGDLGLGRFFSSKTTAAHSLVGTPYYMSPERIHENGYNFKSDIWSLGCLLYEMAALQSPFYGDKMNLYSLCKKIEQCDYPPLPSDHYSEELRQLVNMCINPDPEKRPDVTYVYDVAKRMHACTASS
- condition: at 1 µM
Listed here are compounds together with their documented inhibition.
measured_quantity: inhibition (%)

>>> recorded_measurement("COc1cc(C=NNc2ncnc3c2cnn3-c2ccccc2)ccc1O")
5.26
>>> recorded_measurement("CCc1cccc(NC(=O)Nc2ccc(Oc3ccc4nc(NC(=O)OC)[nH]c4c3)cc2)c1")
-2.89
>>> recorded_measurement("COc1ccc(-c2coc3ncnc(N)c23)cc1")
4.79
>>> recorded_measurement("O=C1NC(=O)C(c2ccc(Cl)cc2)=C1Nc1ccc(Cl)c(C(=O)O)c1")
-3.67

====

- experimental_target: Platelet-derived growth factor receptor alpha (Homo sapiens)
- condition: at 0.1 µM
- Description: GSK_PKIS: PDGFRA mean inhibition at 0.1 uM [Nanosyn]
Use 8% as the dividing line for inhibition, with the line itself on the Met side and lower values as Not met.

>>> class("COc1cc2c(cc1Nc1nc(N3CCc4ccccc43)c3cc[nH]c3n1)N(C(=O)CN(C)C)CC2")
"Not met"
>>> class("Cc1ccc(NC(=O)c2ccnc(N3CCCC3)c2)cc1-c1ccc(C(=O)NCC2CC2)cc1")
"Met"
>>> class("Fc1cccc(COc2ccc(Nc3ncnc4cc(-c5ccc[nH]5)sc34)cc2Cl)c1")
"Met"
>>> class("[O-][S+]1CCN(Cc2ccc(-c3ccc4ncnc(Nc5ccc(OCc6ccccc6)c(F)c5)c4c3)o2)CC1")
"Not met"
>>> class("CCN1CCC(CC(=O)Nc2n[nH]c3nc(-c4cccs4)c(Br)cc23)CC1")
"Not met"
>>> class("Cc1cccc(-c2n[nH]cc2-c2ccc3ncccc3n2)n1")
"Met"
>>> class("CCn1c(-c2nonc2N)nc2c(C#CC(C)(C)O)nc(OC[C@@H](N)c3ccccc3)cc21")
"Not met"
>>> class("COc1ccc2cc(-c3c(-c4ccncc4)nc(-c4ccc([S+](C)[O-])cc4)n3C)ccc2c1 (stereo unspecified)")
"Not met"
>>> class("N#Cc1c(NC(=O)c2cccc3ccccc23)sc2c1CCCC2")
"Not met"
>>> class("COc1ccc(-c2ccncc2)cc1C(N)=O")
"Met"
>>> class("CCn1c(-c2nonc2N)nc2cncc(C(=O)N3CCNCC3)c21")
"Not met"
>>> class("CCn1c(-c2nonc2N)nc2ccncc21")
"Met"
>>> class("CC(=O)Nc1cccc(C#Cc2cncnc2Nc2ccc(OCc3cccc(F)c3)c(Cl)c2)n1")
"Not met"
>>> class("COc1cccc(-n2ncc3c(N/N=C/c4cccc(F)c4)ncnc32)c1")
"Met"
>>> class("Nc1nc(-c2ccccn2)c(-c2ccc3ncccc3n2)s1")
"Not met"
>>> class("O=C1NC(=O)C(c2cccc(Cl)c2)=C1Nc1ccc(O)c(Cl)c1")
"Not met"
>>> class("CCn1c(-c2nonc2N)nc2cnc(Oc3cccc(NC(=O)c4ccc(OCCN5CCOCC5)cc4)c3)cc21")
"Not met"
>>> class("O=C1NC(=O)C(c2ccccc2Cl)=C1Nc1cccc(O)c1")
"Not met"
>>> class("COc1cc2ncn(-c3cc(O[C@H](C)c4ccccc4Cl)c(C(N)=O)s3)c2cc1OC")
"Met"
>>> class("CS(=O)(=O)CCNCc1ccc(-c2ccc3ncnc(Nc4ccc(OCc5ccccc5)c(Cl)c4)c3c2)o1")
"Not met"
>>> class("NS(=O)(=O)c1ccc(N/N=C2\\C(=O)Nc3ccc(C(=O)NCCc4c[nH]cn4)cc32)cc1")
"Met"
>>> class("Cc1nnc(-c2ccc(C)c(-c3ccc(C(=O)Nc4cccc(C#N)c4)cc3)c2)o1")
"Not met"
>>> class("CS(=O)(=O)Nc1ccc(N/C=C2\\C(=O)Nc3ccccc32)cc1")
"Met"
>>> class("COc1cc(C=NNc2ncnc3c2cnn3-c2ccccc2)ccc1O")
"Met"
>>> class("CS(=O)(=O)CCN(CC#N)Cc1ccc(-c2ccc3ncnc(Nc4ccc(OCc5cccc(F)c5)c(Cl)c4)c3c2)o1")
"Not met"
>>> class("COc1cc2ncn(-c3cc(O[C@@H](C)c4ccccc4Cl)c(C(N)=O)s3)c2cc1OC")
"Met"
>>> class("COc1ccc(-c2coc3ncnc(N)c23)cc1")
"Met"
>>> class("Nc1nc(-c2ccc3c(c2)C(=Cc2cc(Br)c(O)c(Br)c2)C(=O)N3)cs1")
"Not met"
>>> class("CC1=C(C(=O)Nc2ccc3[nH]ncc3c2)C(c2ccc(Cl)c(Cl)c2)CC(=O)N1 (stereo unspecified)")
"Not met"
>>> class("c1cnn2ncc(-c3ccnc(Nc4ccc5c(c4)OCCO5)n3)c2c1")
"Met"
